compounds and their reported log10 of TGI
System: HT29 colon
test.method.notes: NCI tumour cell line growth inhibition, 48 h
Would you kindly interpret these values as log10 of TGI expressed in µM?

log10 of TGI in this record for CC(=O)O[C@H]1CC[C@@]2(C)C(=CC[C@@H]3C2CC[C@]2(C)Nc4[nH]ncc4CC32)C1 (stereo not given in full) : 1.49

Consider NC1=C(Cl)C(=O)c2ccccc2C1=O . Its measured log10 of TGI is 1.48

Value of measured log10 of TGI for the entry COc1ccc(/C=N/n2c(Cc3ccc(Cl)cc3)n[nH]c2=O)c(OC)c1 : 1.88

For this compound ( CCOC(=O)C(NCc1cccc(C(F)(F)F)c1)(NC(=O)c1ccccc1)C(F)(F)F (stereo not given) ), measured log10 of TGI is 1.69

Record N#Cc1c(N2CCN(c3ccc([N+](=O)[O-])cc3)CC2)[n+](=O)c2ccc(Cl)cc2n1[O-] , field log10 of TGI: 0.86
